assayedTarget: α7-subtype of nicotinic receptors (Rattus norvegicus, UniProt Q05941)
Sequence (Q05941 23-502): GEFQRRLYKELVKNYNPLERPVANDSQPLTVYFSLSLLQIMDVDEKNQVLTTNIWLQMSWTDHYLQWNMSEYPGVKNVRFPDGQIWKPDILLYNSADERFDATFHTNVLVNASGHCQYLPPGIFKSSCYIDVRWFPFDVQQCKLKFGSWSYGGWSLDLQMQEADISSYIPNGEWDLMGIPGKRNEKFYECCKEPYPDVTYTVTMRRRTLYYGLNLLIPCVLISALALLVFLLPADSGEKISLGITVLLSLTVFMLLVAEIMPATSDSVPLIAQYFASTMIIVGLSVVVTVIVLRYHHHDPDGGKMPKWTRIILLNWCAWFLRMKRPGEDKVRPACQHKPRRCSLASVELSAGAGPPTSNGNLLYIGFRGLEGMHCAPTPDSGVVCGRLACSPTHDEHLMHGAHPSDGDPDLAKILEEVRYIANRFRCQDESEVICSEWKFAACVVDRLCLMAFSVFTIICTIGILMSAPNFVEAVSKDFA
experimentalEndpoint: pIC50
Scale explanation: pIC50 corresponds to minus log10 of a concentration expressed in moles per litre.

Give the measured pIC50 of c1ccc2c(c1)ncn2C1CN2CCC1CC2 (racemic) .
6.40

All values here come from patent US7332507B2.
